// provenance: ChEMBL document CHEMBL4038293

assay: AUC in C57BL/6J mouse at 30 mg/kg, ip; format: ADME, organism-based; details: in vivo
observed-property: AUC
Answer with the number, then the unit.

Which AUC value is on record for O=C(Nc1n[nH]c2cc(-c3ccc(O)cc3)ccc12)c1ccc(OCCN2CCOCC2)cc1 ?
6930 ng·h/mL
